Reported IC50 by item:
EXPERIMENTAL_SYSTEM: ATP-dependent translocase ABCB1 (Homo sapiens, UniProt P08183)
Sequence (P08183 whole entry): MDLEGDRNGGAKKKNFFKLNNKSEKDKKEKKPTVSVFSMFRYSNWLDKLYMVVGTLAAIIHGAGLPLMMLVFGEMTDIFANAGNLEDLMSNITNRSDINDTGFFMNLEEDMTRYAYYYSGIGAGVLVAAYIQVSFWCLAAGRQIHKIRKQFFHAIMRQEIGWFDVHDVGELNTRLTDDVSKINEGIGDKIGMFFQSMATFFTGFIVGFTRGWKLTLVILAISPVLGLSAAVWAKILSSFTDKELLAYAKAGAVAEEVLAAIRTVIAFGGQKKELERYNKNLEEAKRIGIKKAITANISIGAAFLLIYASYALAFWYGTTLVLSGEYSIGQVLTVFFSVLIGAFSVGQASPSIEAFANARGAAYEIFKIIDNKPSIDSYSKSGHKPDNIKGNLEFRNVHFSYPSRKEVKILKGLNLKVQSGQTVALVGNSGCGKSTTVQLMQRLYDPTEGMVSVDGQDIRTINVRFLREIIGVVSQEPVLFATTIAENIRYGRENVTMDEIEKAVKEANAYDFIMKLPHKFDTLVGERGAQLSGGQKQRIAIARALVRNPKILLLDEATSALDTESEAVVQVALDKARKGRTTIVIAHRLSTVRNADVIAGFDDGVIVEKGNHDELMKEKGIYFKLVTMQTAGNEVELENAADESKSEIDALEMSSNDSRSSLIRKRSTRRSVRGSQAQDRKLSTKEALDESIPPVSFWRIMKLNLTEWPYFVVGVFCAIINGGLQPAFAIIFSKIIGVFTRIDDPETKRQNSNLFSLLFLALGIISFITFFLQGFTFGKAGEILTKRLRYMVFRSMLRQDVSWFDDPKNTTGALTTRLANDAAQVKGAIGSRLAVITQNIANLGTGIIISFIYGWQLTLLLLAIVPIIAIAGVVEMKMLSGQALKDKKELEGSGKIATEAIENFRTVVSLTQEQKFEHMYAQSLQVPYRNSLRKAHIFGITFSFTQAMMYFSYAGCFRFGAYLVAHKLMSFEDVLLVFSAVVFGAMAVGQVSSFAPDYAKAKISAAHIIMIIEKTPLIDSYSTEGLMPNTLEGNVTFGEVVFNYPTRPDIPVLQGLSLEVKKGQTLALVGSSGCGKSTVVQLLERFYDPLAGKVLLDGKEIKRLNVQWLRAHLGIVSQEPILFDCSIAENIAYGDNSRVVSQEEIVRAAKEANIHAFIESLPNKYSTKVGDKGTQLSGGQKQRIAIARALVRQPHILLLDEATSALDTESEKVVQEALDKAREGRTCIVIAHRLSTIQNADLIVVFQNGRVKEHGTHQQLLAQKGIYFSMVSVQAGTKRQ
ASSAY_EXPLANATION: Inhibition of human Pgp in A2780 cells after 30 mins by calcein AM assay
Type: cell-based
Just the number in nM, nothing appended.

Consider the worked cases shown below.
Qu. Determine its reported IC50: `COc1cc2c(cc1OC)CN(CCc1ccc(NC(=O)c3cnc4ccccc4c3)cc1)CC2`
Ans. 646

Qu. Determine its reported IC50: `COc1cc2c(cc1OC)CN(CCc1ccc(NC(=O)c3ccccc3NC(=O)c3cnc4ccccc4c3)cc1)CC2`
Ans. 240

Continuing:
Qu. Determine its reported IC50: `O=C(Nc1ccccc1C(=O)Nc1ccc(CCN2CCc3ccccc3C2)cc1)c1cnc2ccccc2c1`
Ans. 447

Qu. Determine its reported IC50: `COc1cc2c(cc1OC)CN(CCc1ccc(NC(=O)c3ccccc3[N+](=O)[O-])cc1)CC2`
Ans. 4790

Qu. Determine its reported IC50: `COc1cc2c(cc1OC)CN(CCc1ccc(NC(=O)c3cccc(Br)c3)cc1)CC2`
Ans. 2290

* * *

Reported IC50 by item:
EXPERIMENTAL_SYSTEM: ATP-dependent translocase ABCB1 (Homo sapiens)
ASSAY_EXPLANATION: Inhibition of human Pgp in A2780 cells after 30 mins by calcein AM assay
Assay type: cell-based
Just the number in nM, nothing appended.

Consider the worked cases shown below.
Qu. Determine its reported IC50: `COc1cc2c(cc1OC)CN(CCc1ccc(NC(=O)c3ccc(N)cc3)cc1)CC2`
Ans. 4070

Qu. Determine its reported IC50: `COc1cc2c(cc1OC)CN(CCc1ccc(NC(=O)c3cccnc3)cc1)CC2`
Ans. 4170

Qu. Determine its reported IC50: `COc1cc2c(cc1OC)CN(CCc1ccc(NC(=O)c3ccc([N+](=O)[O-])cc3)cc1)CC2`
Ans. 1100

Qu. Determine its reported IC50: `COc1cc2c(cc1OC)CN(CCc1ccc(NC(=O)c3cnc4ccccc4n3)cc1)CC2`
Ans. 490

Qu. Determine its reported IC50: `COc1cc2c(cc1OC)CN(CCc1ccc(NC(=O)c3ccccc3Br)cc1)CC2`
Ans. 4270

Qu. Determine its reported IC50: `COc1cc2c(cc1OC)CN(CCc1ccc(NC(=O)c3cc4ccccc4cn3)cc1)CC2`
Ans. 851

Continuing:
Qu. Determine its reported IC50: `COc1cc2c(cc1OC)CN(CCc1ccc(NC(=O)c3ccc4ccccc4c3)cc1)CC2`
Ans. 776

Qu. Determine its reported IC50: `COc1cc2c(cc1OC)CN(CCc1ccc(NC(=O)c3ccccc3NC(=O)c3ccccc3)cc1)CC2`
Ans. 724

Qu. Determine its reported IC50: `O=C(Nc1ccc(CCN2CCc3ccccc3C2)cc1)c1ccccc1[N+](=O)[O-]`
Ans. 12300

* * *

The following molecules each carry a recorded IC50 for ATP-dependent translocase ABCB1 (Homo sapiens, UniProt P08183).
Just the number in nM, nothing appended.

Consider the worked cases shown below.
Qu. Quote IC50 with test system ATP-dependent translocase ABCB1 (Homo sapiens, UniProt P08183) for `COc1cc2c(cc1OC)CN(CCc1ccc(NC(=O)c3cc(OC)c(OC)cc3NC(=O)c3cnc4ccccc4c3)cc1)CC2`
Ans. 38

Qu. Quote IC50 with test system ATP-dependent translocase ABCB1 (Homo sapiens, UniProt P08183) for `COc1cc2c(cc1OC)CN(CCc1ccc(NC(=O)c3ccccc3NC(=O)c3cnc4ccccc4c3)cc1)CC2`
Ans. 87

Continuing:
Qu. Quote IC50 with test system ATP-dependent translocase ABCB1 (Homo sapiens, UniProt P08183) for `COc1cc2c(cc1OC)CN(CCc1ccc(NC(=O)c3ccccc3NC(=O)c3ccccc3)cc1)CC2`
Ans. 250
